Data provenance: paper PMC7278562

assay: Plasma stability; assay type: in vitro ADME; conditions: human plasma (3H biomedical) with 2% DMSO, 50 μM peptide, 37°C, GnHCl/TCA-acetone work-up, C8 RP-HPLC (UPLC), normalized to T = 0, mean, n ≥ 3, read-out: peptide remaining after incubation with human plasma
assay.endpoint: remaining at 24 h, 50 μM

Q: Which remaining at 24 h, 50 μM is listed for CC(C)C[C@H](NC(=O)[C@H](Cc1c[nH]c2ccccc12)NC(=O)[C@H](Cc1cnc[nH]1)NC(=O)[C@H](CCCNC(=N)N)NC(=O)[C@H](CCCNC(=N)N)NC(=O)[C@H](CCCNC(=N)N)NC(=O)[C@H](CCC(N)=O)NC(=O)[C@H](CCCNC(=N)N)NC(=O)[C@H](CCCNC(=N)N)NC(=O)[C@H](CCCCN)NC(=O)[C@H](CCCCN)NC(=O)[C@H](CCCNC(=N)N)NC(=O)CNC(=O)[C@@H](N)Cc1ccc(O)cc1)C(=O)N[C@@H](CCCCN)C(=O)N[C@H](C(=O)O)C(C)C ?
A: ~5%
